- Test system: CD45 (Homo sapiens)
- Construct: incubating the cytosolic portion of CD45 with the compounds and p-nitrophenyl phosphate (pNPP); purchased BIOMOL (Plymouth Meeting, Pa.)
- Sequence (P08575 599-1306 limits assumed): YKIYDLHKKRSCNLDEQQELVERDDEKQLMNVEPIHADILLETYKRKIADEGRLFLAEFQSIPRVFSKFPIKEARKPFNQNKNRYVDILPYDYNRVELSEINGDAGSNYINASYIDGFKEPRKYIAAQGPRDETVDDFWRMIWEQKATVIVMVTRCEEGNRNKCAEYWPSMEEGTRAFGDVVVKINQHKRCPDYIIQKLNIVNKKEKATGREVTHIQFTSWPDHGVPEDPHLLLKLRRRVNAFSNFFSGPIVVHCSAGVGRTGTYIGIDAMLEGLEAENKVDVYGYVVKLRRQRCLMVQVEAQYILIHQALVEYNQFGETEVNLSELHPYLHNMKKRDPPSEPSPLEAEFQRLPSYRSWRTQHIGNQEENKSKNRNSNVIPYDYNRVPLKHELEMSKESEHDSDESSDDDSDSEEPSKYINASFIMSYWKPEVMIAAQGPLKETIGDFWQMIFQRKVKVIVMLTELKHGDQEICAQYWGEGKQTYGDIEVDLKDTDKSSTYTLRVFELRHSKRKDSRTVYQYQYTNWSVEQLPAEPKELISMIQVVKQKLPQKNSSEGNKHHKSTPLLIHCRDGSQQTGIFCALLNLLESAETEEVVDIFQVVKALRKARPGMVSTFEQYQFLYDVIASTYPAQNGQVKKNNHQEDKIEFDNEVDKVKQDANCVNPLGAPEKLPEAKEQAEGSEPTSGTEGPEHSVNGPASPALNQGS
- Method notes: Phosphatase assay using lck 10-mer as substrate
- Format: biochemical
pIC50: −log10 of the molar value. Where a SMILES comes first, the peptide text is derived from it. The star is where a group is joined. Phenanthrenequinone2carbonyl = O=C1C(=O)c2cc(C(=O)*)ccc2-c2ccccc21; 3Phenanthroyl(9,10-dioxo) = O=C1C(=O)c2ccc(C(=O)*)cc2-c2ccccc21
The following compounds are shown together with reported pIC50 values.
Test readout: pIC50

[[record]]
compound = "NC(=O)CC[C@H](NC(=O)[C@@H]1CCCN1C(=O)[C@H](CCC(N)=O)NC(=O)[C@H](CCC(=O)O)NC(=O)c1ccc2c(c1)-c1ccccc1C(=O)C2=O)C(=O)N1CCC[C@H]1C(=O)O [Example 24] ({3Phenanthroyl(9,10-dioxo)}-EQPQP-OH)"
reported = 5.62

[[record]]
compound = "NC(=O)CC[C@H](NC(=O)c1ccc2c(c1)-c1ccccc1C(=O)C2=O)C(=O)N[C@@H](CCC(N)=O)C(=O)NCC(=O)N[C@@H](CCC(N)=O)C(=O)N1CCC[C@H]1C(=O)O [Example 30] ({3Phenanthroyl(9,10-dioxo)}-QQGQP-OH)"
reported = 5.77

[[record]]
compound = "N=C(N)NCCC[C@H](NC(=O)[C@@H]1CCCN1C(=O)[C@H](CCC(=O)O)NC(=O)[C@H](CCC(=O)O)NC(=O)c1ccc2c(c1)C(=O)C(=O)c1ccccc1-2)C(=O)NCC(=O)O [Example 53] (Phenanthrenequinone2carbonyl-EEPRG-OH)"
reported = 5.43

[[record]]
compound = "NC(=O)CC[C@H](NC(=O)CNC(=O)c1ccc2c(c1)-c1ccccc1C(=O)C2=O)C(=O)NCC(=O)N[C@@H](CCC(N)=O)C(=O)N1CCC[C@H]1C(=O)O [Example 29] ({3Phenanthroyl(9,10-dioxo)}-GQGQP-OH)"
reported = 5.60


###

- Test system: T cells (PBMC)
- Method notes: cells
- Type: cell-based, human
- Condition description: Homo sapiens, read-out: T cell prolif. IC50
- Experimental: Cell isolation and T cell proliferation assay: Whole blood was obtained from healthy human blood donors. Peripheral blood mononuclear cells (“PBMC”) were isolated using Lymphoprep density-gradient centrifugation (Nycomed Amersham, Oslo, Norway), washed, counted and resuspended at 2×10^6 cells/mL in RPMI 1640 medium containing glutamine, 0.1 mg/mL gentamycin and 10% heat inactivated human serum. […]
pIC50: −log10 of the molar value.
The following molecules are shown together with reported pIC50 values.
Test readout: pIC50

[[record]]
molecule = "O=C1C(=O)c2cccc([N+](=O)[O-])c2-c2ccc([N+](=O)[O-])cc21 [Example 95, 2,5-Dinitro-phenanthrene-9,10-dione]"
inequality_operator = "<"
reported = 4.52

[[record]]
molecule = "O=C1C(=O)c2cc([N+](=O)[O-])ccc2-c2ccc([N+](=O)[O-])cc21 [Example 94, 2,7-Dinitro-phenanthrene-9,10-dione]"
inequality_operator = "="
reported = 6.30


###

- Method notes: Cytotoxicity assay (Calcein-AM uptake)
- Condition description: human, PHA-expanded T-cell lymphoblasts from PBMC
Categories are assigned from the measured CC50 using these intervals: Low (below 7 µM), Mid (7 µM to below 10 µM), High (10 µM or more)

[[record]]
molecule = "COC(=O)CCCC(=O)Nc1cccc2c1-c1ccccc1C(=O)C2=O"
label_value = "Low"

[[record]]
molecule = "CC(=O)c1ccc2c(c1)C(=O)C(=O)c1ccccc1-2"
label_value = "Low"

[[record]]
molecule = "COC(=O)CCC(=O)Nc1ccc2c(c1)-c1ccccc1C(=O)C2=O"
label_value = "High"

[[record]]
molecule = "Cc1ccc(S(=O)(=O)N(c2ccc3c(c2)C(=O)C(=O)c2ccccc2-3)S(=O)(=O)c2ccc(C)cc2)cc1"
label_value = "Low"

[[record]]
molecule = "O=C1C(=O)c2cc(-c3ccsc3)ccc2-c2ccccc21"
label_value = "Mid"

[[record]]
molecule = "COC(=O)CCCCCCCCC(=O)Nc1cccc2c1-c1ccccc1C(=O)C2=O"
label_value = "High"

[[record]]
molecule = "COC(=O)CCCC(=O)Nc1ccc2c(c1)-c1ccccc1C(=O)C2=O"
label_value = "Mid"

[[record]]
molecule = "O=C(Nc1ccc2c(c1)C(=O)C(=O)c1ccccc1-2)c1ccccc1F"
label_value = "High"

[[record]]
molecule = "Nc1ccc2c(c1)-c1ccccc1C(=O)C2=O"
label_value = "High"

[[record]]
molecule = "COC(=O)CCCCCCC(=O)Nc1ccc2c(c1)C(=O)C(=O)c1ccccc1-2"
label_value = "High"

[[record]]
molecule = "COC(=O)CCCC(=O)Nc1ccc2c(c1)C(=O)C(=O)c1cccc([N+](=O)[O-])c1-2"
label_value = "High"

[[record]]
molecule = "O=C(O)c1ccc2c(c1)C(=O)C(=O)c1ccccc1-2"
label_value = "High"

[[record]]
molecule = "COC(=O)CCCCCCC(=O)Nc1ccc2c(c1)C(=O)C(=O)c1cccc(NC(=O)CCCCCCC(=O)OC)c1-2"
label_value = "High"

[[record]]
molecule = "COC(=O)CCCC(=O)Nc1ccc2c(c1)C(=O)C(=O)c1ccccc1-2"
label_value = "Low"

[[record]]
molecule = "COC(=O)CCCCCCC(=O)Nc1cccc2c1-c1ccccc1C(=O)C2=O"
label_value = "Mid"

[[record]]
molecule = "O=C1C(=O)c2cc(-c3ccc4c(c3)OCO4)ccc2-c2ccccc21"
label_value = "Low"

[[record]]
molecule = "COC(=O)CCCCCCCCC(=O)Nc1ccc2c(c1)C(=O)C(=O)c1cccc(NC(=O)CCCCCCCCC(=O)OC)c1-2"
label_value = "High"

[[record]]
molecule = "O=C1C(=O)c2cc(NC(=O)c3ccccc3C(F)(F)F)ccc2-c2ccccc21"
label_value = "High"

[[record]]
molecule = "CC(=O)c1ccc2c(c1)-c1ccccc1C(=O)C2=O"
label_value = "Low"

[[record]]
molecule = "O=C(O)CNC(=O)c1ccc2c(c1)C(=O)C(=O)c1ccccc1-2"
label_value = "High"

[[record]]
molecule = "CCOc1ccccc1-c1ccc2c(c1)C(=O)C(=O)c1ccccc1-2"
label_value = "High"

[[record]]
molecule = "COC(=O)CCC(=O)Nc1cccc2c1C(=O)C(=O)c1ccccc1-2"
label_value = "Mid"

[[record]]
molecule = "CC(=O)Nc1ccc2c(c1)C(=O)C(=O)c1ccccc1-2"
label_value = "Low"

[[record]]
molecule = "CC(C)CNC(=O)[C@H](CCC(N)=O)NC(=O)CNC(=O)c1ccc2c(c1)-c1ccccc1C(=O)C2=O"
label_value = "High"

[[record]]
molecule = "CCCC(=O)Nc1ccc2c(c1)C(=O)C(=O)c1ccccc1-2"
label_value = "Mid"

[[record]]
molecule = "O=C1C(=O)c2ccc(NC(=O)c3ccccc3C(F)(F)F)cc2-c2ccccc21"
label_value = "High"

[[record]]
molecule = "O=C1C(=O)c2cc([N+](=O)[O-])ccc2-c2ccc([N+](=O)[O-])cc21"
label_value = "Mid"

[[record]]
molecule = "Nc1ccc2c(c1)C(=O)C(=O)c1cccc([N+](=O)[O-])c1-2"
label_value = "Low"

[[record]]
molecule = "O=C1C(=O)c2cc(-c3ccccc3F)ccc2-c2ccccc21"
label_value = "Mid"

